Target: HIV-1 Env of CAP244.D3 (HIV-1)
Assay: cell-based or functional assay
Observable: neutralization IC50

Which neutralization IC50 is reported for this binder? CAP256-VRC26.10 (antibody, V domains shown) VH: QAILVESGGGVVQPGRSLRLSCAASQFTFSGHGLHWVRQAPGKGLEWVASISFAGTKMDYADSVKGRFAISRDNSKNTLYLQMNSLRVEDTALYYCAKDMREYECEYWTSDYYDFGRPQPCIDRRGVVGIFDMWGQGTMVTVST VL: QSVLTQPPSVSAAPGQKVTISCSGSSSNIGDNYVSWYQHLPGTAPKLLIYENTRRPSGIPDRFSGSKSGTSATLAITGLQTGDEADYYCGTWDVRPNRGAVFGTGTKVTVLG
> 50 µg/mL

Source listed as patent US20200199204A1.
